Assignment: determine reported IC50 for the given molecules.
Molecular target: CXCR7 (Homo sapiens, UniProt P25106)
Sequence (P25106 whole entry): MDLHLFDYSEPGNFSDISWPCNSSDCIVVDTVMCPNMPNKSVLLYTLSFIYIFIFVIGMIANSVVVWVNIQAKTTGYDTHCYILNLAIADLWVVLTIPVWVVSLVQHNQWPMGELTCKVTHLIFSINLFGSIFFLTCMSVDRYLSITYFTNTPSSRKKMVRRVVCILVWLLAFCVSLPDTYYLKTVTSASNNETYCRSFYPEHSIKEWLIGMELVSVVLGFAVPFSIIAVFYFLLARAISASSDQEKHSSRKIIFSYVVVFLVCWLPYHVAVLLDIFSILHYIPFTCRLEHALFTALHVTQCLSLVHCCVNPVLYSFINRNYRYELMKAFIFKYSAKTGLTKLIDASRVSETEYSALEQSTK
Test: CXCR7 β-arrestin recruitment assay in CHO-CXCR7 cells (ProLink/EA β-galactosidase complementation), induced by human SDF-1a
Conditions: assay buffer, SDF-1a at EC50 concentration

> print(dat)
                                   molecule            result
1  Cc1c(C(=O)NC2(CC(=O)NC(C)(C)c3cccc(Cl)c3)CN(C3CCCCC3)C2)noc1-c1ccc(F)cc1F [Example 1.340]  1000 to 20000 nM
2  O=C(CC1(NC(=O)c2cc(-c3ccc(F)cc3F)on2)CN(Cc2ccccc2)C1)NC1(c2ncccn2)CC1 [Example 1.329]    100 to 1000 nM
3  Cc1cc(Cl)cc(C(C)(C)NC(=O)CC2(NC(=O)c3cc(-c4ccc(F)cc4F)on3)CN(C3CCOC(C)(C)C3)C2)n1 (stereo not shown) [Example 1.358]            < 5 nM
4  CC(C)(O)CN1CC(CC(=O)NC(C)(C)c2cccc(F)c2)(NC(=O)c2cc(-c3ccc(F)cc3F)on2)C1 [Example 1.251]       5 to 100 nM
5  CC(C)(NC(=O)CC1(NC(=O)c2cc(-c3ccc(F)cc3F)on2)CN([C@H]2CC[C@@](C)(O)CC2)C1)c1cc(F)cc(F)c1 [Example 1.152]            < 5 nM

Please give IC50 for each item listed below.
1. Cc1cc(C#N)cc(C(C)(C)NC(=O)CC2(NC(=O)c3nnc(-c4ccc(F)cc4F)s3)CN([C@H]3CC[C@](C)(O)CC3)C2)n1 [Example 1.337]
2. Cc1cc(C(C)(C)NC(=O)CC2(NC(=O)c3cc(-c4ccc(F)cc4F)on3)CN([C@H]3CC[C@](C)(O)CC3)C2)nc(C)n1 [Example 1.079]
3. C[C@]1(O)CC[C@@H](N2CC(CC(=O)NC3(c4ccccn4)CC3)(NC(=O)c3cc(-c4ccc(F)cc4F)on3)C2)CC1 [Example 1.190]
4. CC1(O)CCC(N2CC(CC(=O)NC3(c4ncccn4)CC3)(NC(=O)c3cc(-c4ccc(F)cc4F)on3)C2)CC1 (stereo not shown) [Example 1.277]
5. CC(C)(O)CN1CC(CC(=O)NC(C)(C)c2cccc(Cl)c2)(NC(=O)c2cc(-c3ccc(F)cc3F)on2)C1 [Example 1.178]
6. Cc1cc(C(C)(C)NC(=O)CC2(NC(=O)c3cc(-c4ccc(F)cc4F)on3)CN([C@H]3CC[C@](C)(O)CC3)C2)ccn1 [Example 1.211]
7. COc1cc(F)cc(C(C)(C)NC(=O)CC2(NC(=O)c3cc(-c4ccc(F)cc4F)on3)CN([C@H]3CC[C@](C)(O)CC3)C2)c1 [Example 1.170]
8. C[C@]1(O)CC[C@H](N2CC(CC(=O)NC3(c4ncccn4)CC3)(NC(=O)c3cc(-c4ccc(F)cc4F)on3)C2)CC1 [Example 1.356]

1. < 5 nM
2. 5 to 100 nM
3. 5 to 100 nM
4. < 5 nM
5. < 5 nM
6. < 5 nM
7. 5 to 100 nM
8. 5 to 100 nM

Dear reader, for each entry below, please note its IC50.
1. CCc1cccc(C(C)(C)NC(=O)CC2(NC(=O)c3cc(-c4ccc(F)cc4F)on3)CN([C@H]3CC[C@](C)(O)CC3)C2)c1 [Example 1.209]
2. Cc1cc(C)nc(C(C)(C)NC(=O)CC2(NC(=O)c3nnc(-c4ccc(F)cc4F)o3)CN([C@H]3CC[C@@](C)(O)CC3)C2)n1 [Example 1.057]
3. CC(CN1CC(CC(=O)NC(C)(C)c2ccccn2)(NC(=O)c2cc(-c3ccc(F)cc3F)on2)C1)C(F)(F)F (stereo not shown) [Example 1.018]
4. CC(C)(NC(=O)CC1(NC(=O)c2cnc(-c3ccc(F)cc3F)s2)CN([C@H]2CC[C@@](C)(O)CC2)C1)c1cccc(Cl)c1 [Example 1.068]
5. Cc1cccc(C(C)(C)NC(=O)CC2(NC(=O)c3cc(-c4ccc(F)cc4F)on3)CN([C@H]3CC[C@](C)(O)CC3)C2)c1 [Example 1.237]
6. CC(C)CN1CC(CC(=O)NC(C)(C)c2ccnc3[nH]ccc23)(NC(=O)c2cc(-c3ccc(F)cc3F)on2)C1 [Example 1.077]
7. CC(C)(O)CN1CC(CC(=O)NC(C)(C)c2ccc(F)cc2F)(NC(=O)c2cc(-c3ccc(F)cc3F)on2)C1 [Example 1.264]
8. COC1(C)CCC(N2CC(CC(=O)NC(C)(C)c3ccccn3)(NC(=O)c3cc(-c4ccc(F)cc4F)on3)C2)CC1 (stereo not shown) [Example 1.285]

1. 5 to 100 nM
2. 100 to 1000 nM
3. 100 to 1000 nM
4. 5 to 100 nM
5. < 5 nM
6. < 5 nM
7. 1000 to 20000 nM
8. 5 to 100 nM

Provide IC50 values for the following items, in order.
1. CC(C)(NC(=O)CC1(NC(=O)c2nnc(-c3ccc(F)cc3F)s2)CN([C@H]2CC[C@](C)(O)CC2)C1)c1cccc(F)c1 [Example 1.042]
2. CC(C)(NC(=O)CC1(NC(=O)c2ncc(-c3ccc(F)cc3F)s2)CN([C@H]2CC[C@@](C)(O)CC2)C1)c1cccc(Cl)c1 [Example 1.045]
3. Cc1ccc(C)c(C(C)(C)NC(=O)CC2(NC(=O)c3nnc(-c4ccc(F)cc4F)s3)CN([C@H]3CC[C@](C)(O)CC3)C2)n1 [Example 1.011]

1: < 5 nM; 2: 5 to 100 nM; 3: < 5 nM

Looking up Cc1cc(C(C)(C)NC(=O)CC2(NC(=O)c3cc(-c4ccc(F)cc4F)on3)CN(C3CCC(C)(O)CC3)C2)cc(C)n1 (stereo not shown) [Example 1.111] , I found its IC50 recorded as 5 to 100 nM
